- Tgt: T1, human TIGIT on cells (Jurkat-hTIGIT, human primary T cells) (human, UniProt Q495A1 22-244)
- T1 construct: whole, on cells; The cell type is named in each row's assay; also called membrane expressed human TIGIT
- T1 sequence (looked up): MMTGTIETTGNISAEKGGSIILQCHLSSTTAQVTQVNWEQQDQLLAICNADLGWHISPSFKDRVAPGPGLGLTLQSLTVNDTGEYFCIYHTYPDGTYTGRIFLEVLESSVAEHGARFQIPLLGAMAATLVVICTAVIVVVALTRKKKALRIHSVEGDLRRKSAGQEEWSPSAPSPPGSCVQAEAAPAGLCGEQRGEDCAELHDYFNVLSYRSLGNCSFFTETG
- Test Name: flow cytometry on Jurkat-hTIGIT, 100 nM antibody, vs untransfected Jurkat
- Protocol: Antibodies were incubated with the cells for 20 min at 4° C. in FACS buffer. […] Geometric mean fluorecence intensity was analysed using LSR BD Fortessa. Cell binding was recorded as the median florescence intensity of PE on the transfected line compared to the un-transfected line for each antibody (Table 3).
Readout Kind: Cell binding FON (Fold Over Negative)

anti-TIGIT antibody clone 26486 (antibody, V domains shown, Naive parent clone, VH4-0B; human IgG; Fab for 'Fab KD' columns) VH: QVQLQESGPGLVKPSETLSLTCAVSGYSISSGYYWAWIRQPPGKGLEWIGSIYHSGSTYYNPSLKSRVTISVDTSKNQFSLKLSSVTAADTAVYYCAIEGANYYDFGYVAFDIWGQGTMVTVSS VL: EIVMTQSPATLSVSPGERATLSCRASQSVSSNLAWYQQKPGQAPRLLIYGASTRATGIPARFSGSGSGTEFTLTISSLQSEDFAVYYCQQSPPWPRTFGGGTKVEIK; 143 fold over negative
anti-TIGIT antibody clone 29478 (antibody, V domains shown, human IgG; Fab for 'Fab KD' columns) VH: EVQLVESGGGVVQPGRSLRLSCAASGFTFESYGMVWVRQAPGKGLEWVASILYDGSNRYYADSVKGRFTVSRDNSKNTLYLQMNSLRAEDTAVYYCARVSYYYDSVELRWAEYFQHWGQGTLVTVSS VL: EIVLTQSPATLSLSPGERATLSCRASQSVSSYLAWYQQKPGQAPRLLIYDASKRATGIPARFSGSGSGTDFTLTISSLEPEDFAVYYCQQVHNFPLTFGGGTKVEIK; 182 fold over negative
anti-TIGIT antibody clone 29499 (antibody, V domains shown, human IgG; Fab for 'Fab KD' columns) VH: QLQLQESGPGLVKPSETLSLTCTVSGGSISSSRYYWAWIRQPPGKGLEWIGSIGTSGSTYYNPSLKSRVTISVDTSKNQFSLKLSSVTATDTAVYYCAIEGANFRDFGYVAFDIWGQGTMVTVSS VL: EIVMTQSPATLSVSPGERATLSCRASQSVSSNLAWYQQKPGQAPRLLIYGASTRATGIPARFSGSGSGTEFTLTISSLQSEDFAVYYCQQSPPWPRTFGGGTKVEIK; 164 fold over negative
anti-TIGIT antibody clone 29523 (antibody, V domains shown, human IgG; Fab for 'Fab KD' columns) VH: EVQLVESGGGVVQPGRSLRLSCAASGFTFGSYYMHWVRQAPGKGLEWVAVIWPDGSNKLYADSVKGRFTISRDNSKNTLYLQMNSLRAEDTALYYCAKPVPKSRALDVWGQGTMVTVSS VL: DIQLTQSPSSVSASVGDRVTITCRASQGISSWLAWYQQKPGKAPKLLIYGASSLQSGVPSRFSGSGSGTDFTLTISSLQPEDFATYYCQQAFYLPWTFGGGTKVEIK; 150 fold over negative
anti-TIGIT antibody clone 29513 (antibody, V domains shown, human IgG; Fab for 'Fab KD' columns) VH: QVQLVQSGAEVKKPGSSVKVSCKASGGTFQNYAISWVRQAPGQGLEWMGVIVPIFGTANYAQKFQGRVTVTADESTSTAYMELSSLRSEDTAVYYCARLHLGQKAYYGMDVWGQGTTVTVSS VL: DIQMTQSPSSLSASVGDRVTITCRASQSISSYLNWYQQKPGKAPKLLIYAASSLQSGVPSRFSGSGSGTDFTLTISSLQPEDFATYYCQQRYVFPPTFGGGTKVEIK; 156 fold over negative
anti-TIGIT antibody clone 32931 (antibody, V domains shown, L1/L2/L3 optimised from 31288; human IgG) VH: QLQLQESGPGLVKPSETLSLTCTVSGGSISSGSYYLAWIRQPPGKGLEWIGSIFRSGSTYYNPSLESRVTISVDTSKNQFSLKLSSVTAADTAVYYCAIEGANFKDFGYVAFDIWGQGTTVTVSS VL: EIVMTQSPATLSVSPGERATLSCRASKSVSSNLAWYQQKPGQAPRLLIYFASTRATGIPARFSGSGSGTEFTLTISSLQSEDFAVYYCQQTSPWPRTFGGGTKVEIK; 741 fold over negative
anti-TIGIT antibody clone 26493 (antibody, V domains shown, Naive parent clone, VH3-09; human IgG; Fab for 'Fab KD' columns; mouse IgG2a/IgG1 versions only used in vivo / ex vivo; also called surrogate anti-TIGIT antagonistic antibody) VH: EVQLVESGGGLVQPGRSLRLSCAASGFTFGDYAMHWVRQAPGKGLEWVSGITWNSGSIGYADSVKGRFTISRDNAKNSLYLQMNSLRAEDTALYYCAKPVPKSRGLDVWGQGTMVTVSS VL: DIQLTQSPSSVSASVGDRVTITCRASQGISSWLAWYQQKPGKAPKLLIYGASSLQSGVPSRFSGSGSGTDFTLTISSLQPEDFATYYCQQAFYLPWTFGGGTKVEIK; 80 fold over negative
anti-TIGIT antibody clone 29527 (antibody, V domains shown, human IgG) VH: QVQLVESGGGVVQPGRSLRLSCAASGFTFSSSYMHWVRQAPGKGLEWVAVIGADGSNKYYADSVEGRFTISRDNSKNTLYLQMNSLRAEDTALYYCAKPVPRRRGLDVWGQGTMVTVSS VL: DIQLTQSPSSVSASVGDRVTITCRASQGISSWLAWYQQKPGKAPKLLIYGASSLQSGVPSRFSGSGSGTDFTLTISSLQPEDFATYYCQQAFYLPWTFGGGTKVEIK; 142 fold over negative
anti-TIGIT antibody clone 26521 (antibody, V domains shown, Naive parent clone, VH1-69; human IgG; Fab for 'Fab KD' columns) VH: QVQLVQSGAEVKKPGSSVKVSCKASGGTFSSYAISWVRQAPGQGLEWMGGIIPIFGTANYAQKFQGRVTITADESTSTAYMELSSLRSEDTAVYYCARLHLGSSAYYGMDVWGQGTTVTVSS VL: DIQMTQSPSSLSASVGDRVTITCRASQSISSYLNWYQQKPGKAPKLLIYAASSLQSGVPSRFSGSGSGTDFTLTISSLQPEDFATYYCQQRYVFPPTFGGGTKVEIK; 146 fold over negative
